Just for reference, ChEMBL document CHEMBL4428027 is where these values come from.

- target.or.test.system: Human immunodeficiency virus type 1 reverse transcriptase (Human immunodeficiency virus 1, UniProt Q72547)
- procedure.text: Inhibition of re-constituted HIV1 reverse transcriptase RNase H domain fragment
- condition.notes: read-out: IC50
experimental.readout: IC50 (µM)
Return type: number; implicit unit µM.

Cn1c(Nc2cccc(-c3cccc(C#N)c3)c2)cc(=O)n(O)c1=O : 1
COc1cccc(-c2ccc(Nc3cc(=O)n(O)c(=O)n3C)cc2)c1 : 1.7

input: May I ask what IC50 has been recorded for COc1ccc(-c2cccc(Nc3cc(=O)n(O)c(=O)[nH]3)c2)cc1 ?
output: 0.1

input: May I ask what IC50 has been recorded for COc1cc(OC)cc(-c2ccc(Nc3cc(=O)n(O)c(=O)n3C)cc2)c1 ?
output: 1.8

input: May I ask what IC50 has been recorded for Cn1c(Nc2cccc(-c3ccc(C#N)cc3)c2)cc(=O)n(O)c1=O ?
output: 1

* * *

- target.or.test.system: Human immunodeficiency virus type 1 reverse transcriptase (Human immunodeficiency virus 1, UniProt Q72547)
- procedure.text: Inhibition of RNase H activity of full length recombinant HIV1 reverse transcriptase assessed as reduction in nonspecific internal cleavage using HTS1 substrate
- condition.notes: read-out: IC50
Catalogue of molecules with associated IC50
Return type: number; implicit unit nM.

Cn1c(Oc2cccc(-c3ccc(C#N)cc3)c2)cc(=O)n(O)c1=O : 1200
O=c1cc(Nc2cccc(-c3ccc(Cl)cc3)c2)[nH]c(=O)n1O : 220

Now consider the entry below.
input: May I ask what IC50 has been recorded for Cn1c(Oc2ccc(-c3ccncc3)cc2)cc(=O)n(O)c1=O ?
output: 3700

* * *

- target.or.test.system: Human immunodeficiency virus type 1 reverse transcriptase (Human immunodeficiency virus 1, UniProt Q72547)
- procedure.text: Inhibition of RNase H activity of full length recombinant HIV1 reverse transcriptase assessed as reduction in RNA 5'-end directed cleavage using HTS3 substrate
- condition.notes: read-out: IC50
Catalogue of compounds with associated pIC50
In plain terms, pIC50 is the concentration in mol/L turned into minus its base-10 logarithm.

Cn1c(Nc2cccc(-c3ccc(O)cc3)c2)cc(=O)n(O)c1=O : 5.57

input: May I ask what pIC50 has been recorded for COc1cccc(-c2cccc(Nc3cc(=O)n(O)c(=O)n3C)c2)c1 ?
output: 5.37

input: May I ask what pIC50 has been recorded for Cn1c(Oc2cccc(-c3ccc(C#N)cc3)c2)cc(=O)n(O)c1=O ?
output: 5.41

input: May I ask what pIC50 has been recorded for Cn1c(Nc2cccc(-c3cncnc3)c2)cc(=O)n(O)c1=O ?
output: 5.41

input: May I ask what pIC50 has been recorded for COc1ccc(-c2ccc(Nc3cc(=O)n(O)c(=O)n3C)cc2)c(OC)c1 ?
output: 5.28

input: May I ask what pIC50 has been recorded for Cn1c(Nc2cccc(-c3ccccc3)c2)cc(=O)n(O)c1=O ?
output: 5.47

* * *

- target.or.test.system: Human immunodeficiency virus type 1 reverse transcriptase (Human immunodeficiency virus 1, UniProt Q72547)
- procedure.text: Inhibition of RNase H activity of full length recombinant HIV1 reverse transcriptase assessed as reduction in DNA 3'-end cleavage using HTS2 substrate
- condition.notes: read-out: IC50
Catalogue of molecules with associated IC50
Return type: number; implicit unit nM.

These recorded examples may help you get a feel for the data.
O=c1cc(Nc2ccc(-c3ccccc3)cc2)[nH]c(=O)n1O : 300
COc1cccc(-c2cccc(Nc3cc(=O)n(O)c(=O)n3C)c2)c1 : 3500
Cc1ccc(-c2cccc(Nc3cc(=O)n(O)c(=O)[nH]3)c2)cc1 : 450

Now consider the entry below.
input: May I ask what IC50 has been recorded for COc1ccc(-c2ccc(Oc3cc(=O)n(O)c(=O)n3C)cc2)cc1 ?
output: 11000

* * *

- target.or.test.system: Human immunodeficiency virus type 1 reverse transcriptase (Human immunodeficiency virus 1, UniProt Q72547)
- procedure.text: Inhibition of RNase H activity of full length recombinant HIV1 reverse transcriptase assessed as reduction in RNA 5'-end directed cleavage using HTS3 substrate
- condition.notes: read-out: IC50
Catalogue of compounds with associated pIC50
In plain terms, pIC50 is the concentration in mol/L turned into minus its base-10 logarithm.

These recorded examples may help you get a feel for the data.
Cn1c(Nc2ccc(-c3cccc(C#N)c3)cc2)cc(=O)n(O)c1=O : 5.48
Cn1c(Nc2cccc(-c3ccc(C#N)cc3)c2)cc(=O)n(O)c1=O : 5.47
COc1cccc(-c2ccc(Nc3cc(=O)n(O)c(=O)n3C)cc2)c1 : 5.29

Now consider the entry below.
input: May I ask what pIC50 has been recorded for Cc1noc(C)c1-c1ccc(Nc2cc(=O)n(O)c(=O)n2C)cc1 ?
output: 5.42

* * *

- target.or.test.system: UniProt:Q72547
- procedure.text: Inhibition of RNase H activity of full length recombinant HIV1 reverse transcriptase assessed as reduction in nonspecific internal cleavage using HTS1 substrate
- condition.notes: read-out: IC50
experimental.readout: pIC50
In plain terms, pIC50 is the concentration in mol/L turned into minus its base-10 logarithm.

These recorded examples may help you get a feel for the data.
COc1cc(OC)cc(-c2cccc(Nc3cc(=O)n(O)c(=O)n3C)c2)c1 : 6.22
COc1ccc(-c2cccc(Nc3cc(=O)n(O)c(=O)n3C)c2)c(OC)c1 : 6.00
COc1cc(OC)cc(-c2ccc(Nc3cc(=O)n(O)c(=O)n3C)cc2)c1 : 5.80
Cn1c(Oc2ccc(-c3ccc(Cl)cc3)cc2)cc(=O)n(O)c1=O : 5.62
Cn1c(Nc2cccc(-c3ccc(C#N)cc3)c2)cc(=O)n(O)c1=O : 6.15

input: May I ask what pIC50 has been recorded for O=c1cc(Nc2ccc(-c3ccccc3O)cc2)[nH]c(=O)n1O ?
output: 6.62

input: May I ask what pIC50 has been recorded for COc1ccc(-c2cccc(Nc3cc(=O)n(O)c(=O)n3C)c2)cc1OC ?
output: 6.30

* * *

- target.or.test.system: Human immunodeficiency virus type 1 reverse transcriptase (Human immunodeficiency virus 1)
- procedure.text: Inhibition of RNase H activity of full length recombinant HIV1 reverse transcriptase assessed as reduction in nonspecific internal cleavage using HTS1 substrate
- condition.notes: read-out: IC50
Catalogue of molecules with associated IC50

These recorded examples may help you get a feel for the data.
Cc1ccc(-c2ccc(Nc3cc(=O)n(O)c(=O)n3C)cc2)cc1 : 2.7 µM
Cn1c(Nc2cccc(-c3ccccc3)c2)cc(=O)n(O)c1=O : 0.85 µM
COc1cc(OC)cc(-c2ccc(Nc3cc(=O)n(O)c(=O)[nH]3)cc2)c1 : 0.19 µM

input: May I ask what IC50 has been recorded for COc1ccc(-c2ccc(Nc3cc(=O)n(O)c(=O)n3C)cc2)c(OC)c1 ?
output: 1.5 µM

input: May I ask what IC50 has been recorded for COc1ccc(-c2ccc(Oc3cc(=O)n(O)c(=O)n3C)cc2)cc1 ?
output: 1.6 µM

input: May I ask what IC50 has been recorded for COc1ccccc1-c1ccccc1Oc1cc(=O)n(O)c(=O)n1C ?
output: 8.1 µM

input: May I ask what IC50 has been recorded for COc1ccc(-c2cccc(Nc3cc(=O)n(O)c(=O)n3C)c2)cc1 ?
output: 0.5 µM

input: May I ask what IC50 has been recorded for COc1cccc(-c2ccc(Oc3cc(=O)n(O)c(=O)n3C)cc2)c1 ?
output: 2 µM

input: May I ask what IC50 has been recorded for Cc1noc(C)c1-c1ccccc1Nc1cc(=O)n(O)c(=O)n1C ?
output: 6.6 µM

input: May I ask what IC50 has been recorded for Cn1c(Oc2cccc(-c3ccccc3)c2)cc(=O)n(O)c1=O ?
output: 1 µM

input: May I ask what IC50 has been recorded for COc1ccccc1-c1ccc(Oc2cc(=O)n(O)c(=O)n2C)cc1 ?
output: 2.8 µM

input: May I ask what IC50 has been recorded for Cn1c(Oc2cccc(-c3ccc(C(F)(F)F)cc3)c2)cc(=O)n(O)c1=O ?
output: 9.5 µM

input: May I ask what IC50 has been recorded for COc1ccc(-c2cccc(Nc3cc(=O)n(O)c(=O)[nH]3)c2)cc1 ?
output: 0.2 µM

input: May I ask what IC50 has been recorded for Cn1c(Oc2ccc(-c3cccc(C#N)c3)cc2)cc(=O)n(O)c1=O ?
output: 1.9 µM

input: May I ask what IC50 has been recorded for Cn1c(Oc2ccccc2-c2ccc(C(F)(F)F)cc2)cc(=O)n(O)c1=O ?
output: 3.9 µM

input: May I ask what IC50 has been recorded for COc1cccc(-c2cccc(Nc3cc(=O)n(O)c(=O)n3C)c2)c1 ?
output: 0.6 µM

input: May I ask what IC50 has been recorded for Cn1c(Oc2cccc(-c3cccc(O)c3)c2)cc(=O)n(O)c1=O ?
output: 0.9 µM

input: May I ask what IC50 has been recorded for Cc1ccc(-c2cccc(Nc3cc(=O)n(O)c(=O)[nH]3)c2)cc1 ?
output: 0.38 µM

input: May I ask what IC50 has been recorded for COc1cccc(-c2ccccc2Oc2cc(=O)n(O)c(=O)n2C)c1 ?
output: 5.7 µM

input: May I ask what IC50 has been recorded for COc1cccc(-c2cccc(Oc3cc(=O)n(O)c(=O)n3C)c2)c1 ?
output: 1 µM

input: May I ask what IC50 has been recorded for Cn1c(Nc2ccc(-c3ccc(C#N)cc3)cc2)cc(=O)n(O)c1=O ?
output: 1.1 µM
